Origin of the recorded values: PubChem BioAssay AID652030

inhibition overview
Molecular target: Acyl-protein thioesterase 2 (Homo sapiens)
Assay: inhibitor selectivity across mouse and human LYPLA2, LYPLA1 – cell lysate, gel-based ABPP, FP-Rh fluorescence, mouse brain membrane proteome, selectivity assay for LYPLA2 selective inhibitor project, late-stage follow-up (AID 652030)
Conditions: rhLYPLA2, at 10 µM, stronger effect = higher value
Activity calls are given as the source filed them.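 How the source made its calls: active means inhibition of 30% or more against both LYPLA2 panels while inhibition against LYPLA1 stays below 30%; inactive means under 30% on either LYPLA2 panel, or 30%+ on LYPLA1.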
ENDPOINT: inhibition

- COMPOUND: "COc1ccc(-c2noc(CCC(=O)N3CCN(c4cccc(C(F)(F)F)c4)CC3)n2)cc1"
  ASSAY_SYSTEM: "Acyl-protein thioesterase 2 (Homo sapiens)"
  ENDPOINT: "inhibition"
  REPORTED_VALUE: "2% (inactive)"
- COMPOUND: "CC(CCC(C)C)=NNC(=S)Nc1cc(S(=O)(=O)N2CCOCC2)ccc1N1CCOCC1"
  ASSAY_SYSTEM: "Acyl-protein thioesterase 2 (Homo sapiens)"
  ENDPOINT: "inhibition"
  REPORTED_VALUE: "8% (inactive)"
- COMPOUND: "COc1cc(C=NNC(=O)C(NC(=O)c2ccccc2)c2n[nH]c(=O)c3ccccc23)ccc1OCC(N)=O (centres undefined)"
  ASSAY_SYSTEM: "Acyl-protein thioesterase 2 (Homo sapiens)"
  ENDPOINT: "inhibition"
  REPORTED_VALUE: "9% (inactive)"
- COMPOUND: "Cc1ccc(Oc2ccc3c(c2)C(=O)N(c2ccc(S(=O)(=O)Nc4nccs4)cc2)C3=O)cc1"
  ASSAY_SYSTEM: "Acyl-protein thioesterase 2 (Homo sapiens)"
  ENDPOINT: "inhibition"
  REPORTED_VALUE: "9% (inactive)"
